Source listed as ChEMBL document CHEMBL1154433.

biological target: Prostaglandin G/H synthase 1 (Homo sapiens) (UniProt P23219); test: Inhibition of COX1; set-up: concentration or dose not given beside the values; conditions: concentration not given here
Sequence (P23219 whole entry): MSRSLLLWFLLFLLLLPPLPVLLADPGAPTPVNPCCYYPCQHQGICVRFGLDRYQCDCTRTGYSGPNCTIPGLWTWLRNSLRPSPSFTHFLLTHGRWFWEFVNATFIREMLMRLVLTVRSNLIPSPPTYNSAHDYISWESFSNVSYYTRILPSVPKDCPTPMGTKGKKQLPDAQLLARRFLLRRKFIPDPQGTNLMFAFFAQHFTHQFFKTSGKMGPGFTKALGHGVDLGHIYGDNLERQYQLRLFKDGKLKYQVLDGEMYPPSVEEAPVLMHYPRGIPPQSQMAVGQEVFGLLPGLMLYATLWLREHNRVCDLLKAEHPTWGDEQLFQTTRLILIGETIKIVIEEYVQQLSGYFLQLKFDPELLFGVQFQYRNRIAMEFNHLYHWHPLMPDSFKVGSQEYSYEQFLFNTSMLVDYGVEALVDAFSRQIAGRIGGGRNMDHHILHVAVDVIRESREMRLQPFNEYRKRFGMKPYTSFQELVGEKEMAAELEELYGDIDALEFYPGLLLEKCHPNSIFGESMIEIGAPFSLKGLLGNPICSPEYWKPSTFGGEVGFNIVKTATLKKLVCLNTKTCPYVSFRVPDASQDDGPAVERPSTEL

- COMPOUND: "Cc1ccc(C2C(Cl)C(=O)N2c2nnc(CNc3nnc4c5ccccc5nc-4s3)s2)cc1 (centres undefined)"
  inhibition: "38.4%"
- COMPOUND: "CN(C)c1ccc(C2C(Cl)C(=O)N2c2nnc(CNc3nnc4c5ccccc5nc-4s3)s2)cc1 (centres undefined)"
  inhibition: "37.2%"
- COMPOUND: "O=C1C(Cl)C(c2ccccc2)N1c1nnc(CNc2nnc3c4ccccc4nc-3s2)s1 (centres undefined)"
  inhibition: "37%"
- COMPOUND: "COc1ccccc1C1SCC(=O)N1c1nnc(CNc2nnc3c4ccccc4nc-3s2)s1 (centres undefined)"
  inhibition: "33.3%"
